Measured values drawn from patent US6998244B1 for this set.

# TARGET_SYSTEM: human 5-HT4(a) receptor (Homo sapiens)
# Construct: expressed in transfected cells; host or cells: COS-7 cells, transient transfection with a pcDNA3 construct
# Sequence (Q13639 1-387 isoform Q13639-2): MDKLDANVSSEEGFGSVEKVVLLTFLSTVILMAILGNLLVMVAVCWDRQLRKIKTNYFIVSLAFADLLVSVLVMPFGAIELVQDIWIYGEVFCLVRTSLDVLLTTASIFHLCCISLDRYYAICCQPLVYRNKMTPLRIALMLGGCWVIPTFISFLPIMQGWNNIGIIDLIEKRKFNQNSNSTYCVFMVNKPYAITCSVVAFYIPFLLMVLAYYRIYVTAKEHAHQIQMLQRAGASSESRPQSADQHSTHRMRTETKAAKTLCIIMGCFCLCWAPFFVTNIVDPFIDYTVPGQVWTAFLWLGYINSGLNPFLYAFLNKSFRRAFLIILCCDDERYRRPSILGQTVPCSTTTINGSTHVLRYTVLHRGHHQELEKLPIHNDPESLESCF
# METHOD_SUMMARY: Competition with […] [3H]GR113808 binding, membranes of transfected COS-7 cells
# EXPERIMENTAL_CONDITIONS: Human 5-HT4 a receptor in Cos-7 cells, Cheng and Prusoff
MEASURED_ATTRIBUTE: Ki
Please report the result as a number followed by the unit.

Given the compound `CCCCCNC(=N)N/N=C/c1c[nH]c2ccc(OC)cc12` , what is its reported Ki? 13.8 nM

Also CCOc1cc(N)c(Cl)cc1C(=O)NCC1CN(Cc2ccc(F)cc2)CCO1 (centres unmarked) [Mosapride] , if possible. 195 nM

* * *

# TARGET_SYSTEM: human 5-HT4(b) receptor (Homo sapiens)
# Sequence (Q13639 whole entry): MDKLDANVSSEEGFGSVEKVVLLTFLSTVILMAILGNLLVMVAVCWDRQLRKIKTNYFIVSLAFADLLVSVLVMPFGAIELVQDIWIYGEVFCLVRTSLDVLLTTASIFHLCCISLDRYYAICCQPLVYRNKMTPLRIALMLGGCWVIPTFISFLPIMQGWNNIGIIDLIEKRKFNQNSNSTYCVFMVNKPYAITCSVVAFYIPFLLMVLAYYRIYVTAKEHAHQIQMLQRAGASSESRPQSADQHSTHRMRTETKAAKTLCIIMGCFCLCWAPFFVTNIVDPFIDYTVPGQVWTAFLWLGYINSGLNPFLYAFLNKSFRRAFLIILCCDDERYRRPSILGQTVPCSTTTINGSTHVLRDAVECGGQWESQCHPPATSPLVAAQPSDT
# METHOD_SUMMARY: Competition with […] [3H]GR113808 binding, membranes of transfected COS-7 cells
# EXPERIMENTAL_CONDITIONS: Human 5-HT4 b receptor in Cos-7 cells, Cheng and Prusoff
Please respond with reported Ki for every item in the list.
Write the answer as a number in nM, unit excluded.

Given the compound CCCCCNC(=N)N/N=C/c1c[nH]c2ccc(OC)cc12 [SDZ-HTF919] , what is its reported Ki? 8.13

Also CCOc1cc(N)c(Cl)cc1C(=O)NCC1CN(Cc2ccc(F)cc2)CCO1 (centres unmarked) [Mosapride] , if possible. 661

* * *

# TARGET_SYSTEM: h 5-HT4(h) (Homo sapiens)
# Sequence (Q13639 1-402 isoform Q13639-6): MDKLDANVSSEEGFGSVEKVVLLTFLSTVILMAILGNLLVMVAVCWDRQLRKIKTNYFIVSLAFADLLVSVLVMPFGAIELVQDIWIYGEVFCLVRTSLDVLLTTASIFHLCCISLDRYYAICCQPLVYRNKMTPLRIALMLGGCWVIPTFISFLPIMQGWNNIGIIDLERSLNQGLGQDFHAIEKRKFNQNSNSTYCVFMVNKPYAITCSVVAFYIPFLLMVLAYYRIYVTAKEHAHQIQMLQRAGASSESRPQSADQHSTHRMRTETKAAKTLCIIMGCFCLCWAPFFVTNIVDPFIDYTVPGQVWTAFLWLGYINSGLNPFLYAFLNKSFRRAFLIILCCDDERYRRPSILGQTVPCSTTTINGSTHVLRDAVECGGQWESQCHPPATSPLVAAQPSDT
# METHOD_SUMMARY: Radioligand saturation binding, membranes of transfected COS-7 cells
# EXPERIMENTAL_CONDITIONS: h variant, 3 independent transfections
MEASURED_ATTRIBUTE: Kd (nM)
Write the answer as a number in nM, unit excluded.

Given the compound Cn1cc(C(=O)OCC2CCN(CCNS(C)(=O)=O)CC2)c2ccccc21 [[^3H]GR113808] , what is its reported Kd? 0.24
